Recorded values, source the supplement of paper PMC10567573.

Give measured protein stability index for each item. Keep answers brief.
B1: APBB1IP (parent)
chain: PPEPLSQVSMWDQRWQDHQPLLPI

Variants of: B1
method: protein stability index of a GFP-peptide fusion (GPS, HEK-293T) (PSI 1-6); higher = more stable;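 note: lentivirally expressed fusions sorted by FACS into six bins by GFP to DsRed ratio, PSI derived from sequencing read proportions per bin multiplied by bin number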
statedConditions: c terminus: a fixed tail appended
Numbers only.

Worked examples, 3 variants total:
INSERT INTO results (variantlabel, measure, readoutvalue) VALUES
  ('R14C', 'protein stability index', 2.79),
  ('Q7C', 'protein stability index', 3.13),
  ('M10I', 'protein stability index', 2.79);

For every record below, what is its protein stability index?
1. D12E
2. D17V
3. R14H
4. S9E
5. Q7S
6. L21A

*A*
[2.64, 2.54, 3.19, 3.56, 2.81, 3.88]
